Listing of entries alongside the reported phosphorylation enrichment.
Target: EPHB1 (UniProt P54762)
Sequence (P54762 whole entry, looked up): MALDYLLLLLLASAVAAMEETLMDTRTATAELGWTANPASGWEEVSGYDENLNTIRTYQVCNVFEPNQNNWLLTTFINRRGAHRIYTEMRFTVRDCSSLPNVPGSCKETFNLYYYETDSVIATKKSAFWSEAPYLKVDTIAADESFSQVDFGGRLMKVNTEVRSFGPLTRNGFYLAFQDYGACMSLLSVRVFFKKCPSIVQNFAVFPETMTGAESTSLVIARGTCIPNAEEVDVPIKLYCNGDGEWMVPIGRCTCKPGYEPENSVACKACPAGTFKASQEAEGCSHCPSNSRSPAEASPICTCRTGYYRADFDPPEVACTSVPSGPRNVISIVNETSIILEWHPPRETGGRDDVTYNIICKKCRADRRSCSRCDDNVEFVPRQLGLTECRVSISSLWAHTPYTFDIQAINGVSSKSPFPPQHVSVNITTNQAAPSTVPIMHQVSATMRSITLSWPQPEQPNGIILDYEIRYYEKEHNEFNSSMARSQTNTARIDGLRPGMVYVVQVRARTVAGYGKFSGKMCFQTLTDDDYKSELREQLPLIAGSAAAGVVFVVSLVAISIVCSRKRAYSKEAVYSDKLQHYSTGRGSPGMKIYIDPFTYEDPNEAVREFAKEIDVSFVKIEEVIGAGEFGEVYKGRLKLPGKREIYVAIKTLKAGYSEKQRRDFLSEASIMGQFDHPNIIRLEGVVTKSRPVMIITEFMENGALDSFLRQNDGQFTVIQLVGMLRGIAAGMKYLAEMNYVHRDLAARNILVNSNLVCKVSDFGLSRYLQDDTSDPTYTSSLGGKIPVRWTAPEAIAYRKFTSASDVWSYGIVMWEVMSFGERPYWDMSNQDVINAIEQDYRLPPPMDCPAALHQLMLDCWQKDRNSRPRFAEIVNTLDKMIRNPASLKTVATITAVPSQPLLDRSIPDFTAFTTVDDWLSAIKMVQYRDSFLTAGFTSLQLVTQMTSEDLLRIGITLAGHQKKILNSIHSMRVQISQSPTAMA
Assay: phosphorylation enrichment, bacterial display (enrichment ratio); higher = better substrate or ligand; peptides without Tyr show the background;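 note: 11-residue human phosphosite peptides and single-mutation variants displayed on the E. coli surface, counted by deep sequencing, each peptide's frequency after selection divided by its frequency in the unselected input library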;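 note: frequency after pTyr selection over input frequency; kinase dosed for 20-30% of maximal phosphorylation in three min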
Lab note: write the figure by itself, no unit.

Sample records with phosphorylation enrichment:
RFLKDYGEFEV [GINS1_Y156_C152Y_YF]    0.497
QYPDIYAREEV [CRX_Y67_V66I]    1.63
CNRADYSKLAS [GNE_Y22_P27S]    0.393

Any idea what phosphorylation enrichment was measured for ESFRLYPPVPQ [CYP4B1_Y377] ?
0.416

* * *

Tested on: Fer (mouse)
Experiment: phosphorylation enrichment, bacterial display (enrichment ratio); higher = better substrate or ligand; peptides without Tyr show the background
Assign class by phosphorylation enrichment: not lower than 0.8 means T; lower than 0.8 means F.

Study these solved cases before continuing.
SPFAVYLFFTF [RPGRIP1_Y826_R827L_YF]    F
GGQSVYHVHLH [HINT1_Y109]    F
RSSNTYTLTDV [ALCAM_Y298]    T
KMATAYIRSMS [BCO1_Y264_R267S]    F
HHTNEYEYDEL [TGM1_Y134_D132N]    F
EWRSPYGLTPR [GRIN3B_Y601]    F
LPIQTYSALNF [DES_Y423]    T
MFRVQYNSSVD [LRFN1_Y458_Q455R_YF]    F

Note: attention shifts to another entry.
# bool: phosphorylation enrichment of TLKDVCDDGKY [RPS6KA3_Y483_Y483C] >= 0.8
F
